- TARGET DESC: UniProtKB P06401
- ASSAY: Agonist activity at progesterone receptor assessed as alkaline phosphatase activity in human T47D cells
MEASURE: EC50 (nM)
Write down the numeric answer in nM and omit the unit.

INPUT: Query EC50 for CC1(C)OC(=O)Nc2ccc(-c3cc(F)cc(C#N)c3)cc21
OUTPUT: 90

* * *

Catalogue of compounds with associated IC50
- TARGET DESC: Glucocorticoid receptor (Homo sapiens, UniProt P04150)
- Sequence (P04150 whole entry, the tested form may be a part): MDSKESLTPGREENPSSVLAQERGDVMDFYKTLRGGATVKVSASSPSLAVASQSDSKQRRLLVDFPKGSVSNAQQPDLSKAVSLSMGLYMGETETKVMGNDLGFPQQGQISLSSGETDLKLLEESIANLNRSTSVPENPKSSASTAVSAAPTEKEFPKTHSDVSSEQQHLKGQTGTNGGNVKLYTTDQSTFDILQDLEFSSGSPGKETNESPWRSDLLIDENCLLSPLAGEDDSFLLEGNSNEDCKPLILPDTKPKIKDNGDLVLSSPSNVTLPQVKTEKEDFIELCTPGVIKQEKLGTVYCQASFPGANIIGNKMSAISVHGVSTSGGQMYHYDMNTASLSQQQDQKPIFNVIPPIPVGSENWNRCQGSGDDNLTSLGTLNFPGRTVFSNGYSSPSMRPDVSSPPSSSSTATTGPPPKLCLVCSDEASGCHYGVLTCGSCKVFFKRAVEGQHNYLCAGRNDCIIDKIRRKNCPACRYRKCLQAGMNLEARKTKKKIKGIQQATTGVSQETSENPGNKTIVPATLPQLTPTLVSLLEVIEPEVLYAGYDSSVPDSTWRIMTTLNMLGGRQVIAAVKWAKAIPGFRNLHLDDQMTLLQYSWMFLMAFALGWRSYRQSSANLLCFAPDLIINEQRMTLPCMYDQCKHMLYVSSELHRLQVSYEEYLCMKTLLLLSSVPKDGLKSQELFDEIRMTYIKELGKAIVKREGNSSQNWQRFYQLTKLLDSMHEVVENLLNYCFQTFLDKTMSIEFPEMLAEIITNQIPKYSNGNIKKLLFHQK
- ASSAY: Antagonist activity at cloned glucocorticoid receptor-ligand binding domain expressed in african green monkey COS7 cells by GAL4 luciferase reporter assay

The cases that follow already have their IC50 on record.
>>> recorded_result("CCC1(c2ccco2)OCC(=O)Nc2ccc(-c3cc(F)cc(C#N)c3)cc21 (stereo not drawn)")
"190 nM"
>>> recorded_result("N#Cc1cc(F)cc(-c2ccc3c(c2)C(c2ccco2)(c2ccco2)OCC(=O)N3)c1")
"1300 nM"

# ---- query compound ----
INPUT: Query IC50 for CC1(C)OCC(=O)Nc2ccc(-c3cc(F)cc(C#N)c3)cc21
OUTPUT: > 3000 nM

* * *

Catalogue of compounds with associated IC50
- TARGET DESC: Mineralocorticoid receptor (Homo sapiens)
- Sequence (P08235 whole entry, the tested form may be a part): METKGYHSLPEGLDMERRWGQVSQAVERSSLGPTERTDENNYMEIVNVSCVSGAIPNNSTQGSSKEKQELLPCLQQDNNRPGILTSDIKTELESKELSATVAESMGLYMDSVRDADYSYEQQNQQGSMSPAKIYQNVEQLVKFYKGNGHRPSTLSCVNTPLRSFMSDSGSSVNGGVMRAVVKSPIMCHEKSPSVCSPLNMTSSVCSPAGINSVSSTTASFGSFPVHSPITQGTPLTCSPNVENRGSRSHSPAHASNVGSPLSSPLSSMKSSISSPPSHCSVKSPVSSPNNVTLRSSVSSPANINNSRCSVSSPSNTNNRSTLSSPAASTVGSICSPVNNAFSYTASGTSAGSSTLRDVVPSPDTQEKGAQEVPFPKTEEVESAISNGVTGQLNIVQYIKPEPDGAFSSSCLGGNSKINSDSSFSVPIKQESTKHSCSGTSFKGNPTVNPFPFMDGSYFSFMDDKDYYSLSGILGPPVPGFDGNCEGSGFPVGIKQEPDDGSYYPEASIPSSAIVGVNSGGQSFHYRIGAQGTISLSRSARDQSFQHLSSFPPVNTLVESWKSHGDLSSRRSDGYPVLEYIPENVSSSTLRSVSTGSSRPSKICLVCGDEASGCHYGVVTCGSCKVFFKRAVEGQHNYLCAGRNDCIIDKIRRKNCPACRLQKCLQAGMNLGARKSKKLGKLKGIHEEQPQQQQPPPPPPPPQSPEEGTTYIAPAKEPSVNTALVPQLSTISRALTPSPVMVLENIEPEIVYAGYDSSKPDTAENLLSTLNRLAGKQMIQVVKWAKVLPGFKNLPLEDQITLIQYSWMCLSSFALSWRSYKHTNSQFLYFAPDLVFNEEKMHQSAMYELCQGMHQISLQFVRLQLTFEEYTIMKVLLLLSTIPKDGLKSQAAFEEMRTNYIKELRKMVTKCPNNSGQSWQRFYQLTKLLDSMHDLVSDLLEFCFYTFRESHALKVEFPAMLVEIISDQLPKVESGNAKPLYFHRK
- ASSAY: Antagonist activity at cloned mineralocorticoid receptor-ligand binding domain expressed in african green monkey COS7 cells by GAL4 luciferase reporter assay

The cases that follow already have their IC50 on record.
>>> recorded_result("CCC1(c2ccco2)OCC(=O)Nc2ccc(-c3cc(F)cc(C#N)c3)cc21 (stereo not drawn)")
"> 3 µM"
>>> recorded_result("CC1(C)OCC(=O)Nc2ccc(-c3cc(F)cc(C#N)c3)cc21")
"> 3 µM"

# ---- query compound ----
INPUT: Query IC50 for N#Cc1cc(F)cc(-c2ccc3c(c2)C(c2ccco2)(c2ccco2)OCC(=O)N3)c1
OUTPUT: > 3 µM

* * *

- TARGET DESC: Progesterone receptor (Homo sapiens, UniProt P06401)
- ASSAY: Agonist activity at progesterone receptor assessed as alkaline phosphatase activity in human T47D cells
- RUN PARAMETERS: read-out: EC50
MEASURE: pEC50
Entry type: numeric. Quantity: pEC50, the -log10 of concentration in molar units.

INPUT: Query pEC50 for CC1(C)OCC(=S)Nc2ccc(-c3cc(F)cc(F)c3)cc21
OUTPUT: 7.45

* * *

- TARGET DESC: Mineralocorticoid receptor (Homo sapiens) (UniProt P08235)
- Sequence (P08235 whole entry, the tested form may be a part): as above
- ASSAY: Antagonist activity at cloned mineralocorticoid receptor-ligand binding domain expressed in african green monkey COS7 cells by GAL4 luciferase reporter assay
- Assay type: cell-based
- RUN PARAMETERS: COS-7; concentration not given here
Catalogue of molecules with associated inhibition
Write down the numeric answer in % and omit the unit.

The cases that follow already have their inhibition on record.
>>> recorded_result("N#Cc1cc(F)cc(-c2ccc3c(c2)C(c2ccco2)(c2ccco2)OCC(=O)N3)c1")
60
>>> recorded_result("CCC1(c2ccco2)OCC(=O)Nc2ccc(-c3cc(F)cc(C#N)c3)cc21 (centres undefined)")
82
>>> recorded_result("CC1(C)OCC(=O)Nc2ccc(-c3cc(F)cc(C#N)c3)cc21")
32

# ---- query molecule ----
INPUT: Query inhibition for CC#C[C@]1(O)CC[C@H]2[C@@H]3CCC4=CC(=O)CCC4=C3[C@@H](c3ccc(N(C)C)cc3)C[C@@]21C
OUTPUT: 96

* * *

Catalogue of compounds with associated pIC50
- TARGET DESC: Progesterone receptor (Homo sapiens, UniProt P06401)
- ASSAY: Inhibition of progesterone receptor mediated progesterone-induced alkaline phosphatase activity in human T47D cells
Entry type: numeric. Quantity: pIC50, the -log10 of concentration in molar units.

The cases that follow already have their pIC50 on record.
>>> recorded_result("N#Cc1cc(F)cc(-c2ccc3c(c2)C(c2ccco2)(c2ccco2)OCC(=O)N3)c1")
7.88
>>> recorded_result("O=C1COC(c2cccs2)(c2cccs2)c2cc(-c3ccc(F)c(Cl)c3)ccc2N1")
7.19
>>> recorded_result("CC1(C)OCC(=O)Nc2ccc(-c3ccc(F)c(F)c3)cc21")
7.53
>>> recorded_result("O=C1COC(c2ccco2)(C(F)(F)C(F)(F)F)c2cc(-c3ccc(F)c(Cl)c3)ccc2N1 (centres undefined)")
7.08

INPUT: Query pIC50 for CCC1(c2ccsc2)OCC(=O)Nc2ccc(-c3ccc(F)c(Cl)c3)cc21 (centres undefined)
OUTPUT: 6.93

INPUT: Query pIC50 for CC1(C)OCC(=O)Nc2ccc(-c3ccccc3F)cc21
OUTPUT: 7.21

* * *

Catalogue of compounds with associated IC50
- TARGET DESC: Progesterone receptor (Homo sapiens, UniProt P06401)
- Sequence (P06401 whole entry): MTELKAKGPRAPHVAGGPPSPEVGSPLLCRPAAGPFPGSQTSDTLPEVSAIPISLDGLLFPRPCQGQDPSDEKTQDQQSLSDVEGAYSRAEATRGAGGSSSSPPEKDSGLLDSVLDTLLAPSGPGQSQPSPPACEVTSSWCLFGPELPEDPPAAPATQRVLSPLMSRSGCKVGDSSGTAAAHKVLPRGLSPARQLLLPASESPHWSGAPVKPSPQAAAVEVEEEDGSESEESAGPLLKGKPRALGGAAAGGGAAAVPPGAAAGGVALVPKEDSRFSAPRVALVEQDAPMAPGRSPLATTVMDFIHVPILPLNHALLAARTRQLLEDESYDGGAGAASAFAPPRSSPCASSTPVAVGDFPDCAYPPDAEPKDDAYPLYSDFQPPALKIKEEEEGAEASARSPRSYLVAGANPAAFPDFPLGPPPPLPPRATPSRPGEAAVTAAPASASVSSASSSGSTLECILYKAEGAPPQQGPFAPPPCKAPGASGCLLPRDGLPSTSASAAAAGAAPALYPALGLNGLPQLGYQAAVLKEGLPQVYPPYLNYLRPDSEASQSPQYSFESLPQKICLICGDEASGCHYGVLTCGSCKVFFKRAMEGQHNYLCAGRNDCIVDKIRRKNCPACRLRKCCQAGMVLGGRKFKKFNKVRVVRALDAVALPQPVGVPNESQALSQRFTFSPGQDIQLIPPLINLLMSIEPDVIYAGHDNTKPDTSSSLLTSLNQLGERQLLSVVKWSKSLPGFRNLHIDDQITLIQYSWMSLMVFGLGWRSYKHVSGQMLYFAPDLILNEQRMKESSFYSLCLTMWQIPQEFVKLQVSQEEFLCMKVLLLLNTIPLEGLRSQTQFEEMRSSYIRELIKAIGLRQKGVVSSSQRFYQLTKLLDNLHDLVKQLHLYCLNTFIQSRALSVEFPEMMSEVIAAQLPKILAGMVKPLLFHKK
- ASSAY: Inhibition of progesterone receptor mediated progesterone-induced alkaline phosphatase activity in human T47D cells
Write down the numeric answer in nM and omit the unit.

The cases that follow already have their IC50 on record.
>>> recorded_result("N#Cc1cc(F)cc(-c2ccc3c(c2)C(c2ccc(Cl)s2)(c2ccc(Cl)s2)OCC(=O)N3)c1")
1000
>>> recorded_result("CC1(c2cccs2)OCC(=O)Nc2ccc(-c3ccc(F)c(Cl)c3)cc21 (stereo unspecified)")
65.5

INPUT: Query IC50 for CC1(C)OCC(=O)Nc2ccc(-c3cc(F)cc(C#N)c3)cc21
OUTPUT: 25

INPUT: Query IC50 for CCC1(c2ccco2)OCC(=O)Nc2ccc(-c3ccc(F)c(Cl)c3)cc21 (stereo unspecified)
OUTPUT: 62.5

INPUT: Query IC50 for CCC1(c2ccco2)OCC(=O)Nc2ccc(-c3cc(F)cc(C#N)c3)cc21 (stereo unspecified)
OUTPUT: 11.8

INPUT: Query IC50 for CC(C)C1(c2cccs2)OCC(=S)Nc2ccc(-c3cc(F)cc(C#N)c3)cc21 (stereo unspecified)
OUTPUT: 78.2

INPUT: Query IC50 for CC1(C)OCC(=O)Nc2ccc(-c3ccc(F)cc3)cc21
OUTPUT: 100

INPUT: Query IC50 for CC1(C)OCC(=O)Nc2ccc(-c3cccc(F)c3)cc21
OUTPUT: 14.9

INPUT: Query IC50 for N#Cc1cc(F)cc(-c2ccc3c(c2)C(c2ccco2)(C(F)(F)C(F)(F)F)OCC(=O)N3)c1 (stereo unspecified)
OUTPUT: 34.1

INPUT: Query IC50 for CN1CC(=O)Nc2ccc(-c3ccc(F)c(Cl)c3)cc2C1(C)C
OUTPUT: 105

INPUT: Query IC50 for CC1(C)OCC(=O)Nc2ccc(-c3cc(Cl)cc(C#N)c3)cc21
OUTPUT: 34.6

INPUT: Query IC50 for O=C1COC(c2ccccc2)(c2ccccc2)c2cc(-c3ccc(F)c(Cl)c3)ccc2N1
OUTPUT: 88

INPUT: Query IC50 for CC(C)C1(c2cccs2)OCC(=O)Nc2ccc(-c3ccc(F)c(Cl)c3)cc21 (stereo unspecified)
OUTPUT: 366

INPUT: Query IC50 for CC1=NCC(=O)Nc2ccc(-c3ccc(F)c(Cl)c3)cc21
OUTPUT: 677

INPUT: Query IC50 for CC1(C)OCC(=O)Nc2ccc(-c3cc(F)cc(F)c3)cc21
OUTPUT: 30

INPUT: Query IC50 for CC1(C)OCC(=O)Nc2ccc(-c3cccc(F)c3F)cc21
OUTPUT: 15.7

INPUT: Query IC50 for CC(C)C1(c2cccs2)OCC(=O)Nc2ccc(-c3cc(F)cc(C#N)c3)cc21 (stereo unspecified)
OUTPUT: 138

INPUT: Query IC50 for CCCC1(c2cccs2)OCC(=O)Nc2ccc(-c3ccc(F)c(Cl)c3)cc21 (stereo unspecified)
OUTPUT: 349

INPUT: Query IC50 for CC1(C)OCC(=O)Nc2ccc(-c3ccc(F)c(Cl)c3)cc21
OUTPUT: 30.1

INPUT: Query IC50 for N#Cc1cc(F)cc(-c2ccc3c(c2)C(c2cccs2)(c2cccs2)OCC(=O)N3)c1
OUTPUT: 26.6

INPUT: Query IC50 for CCC1(c2cccs2)OCC(=O)Nc2ccc(-c3csc(C#N)c3)cc21 (stereo unspecified)
OUTPUT: 108
